Cited source for all entries: PubChem BioAssay (Tox21)

# TEST_DETAILS: A CellTox Green Cytotoxicity Assay to monitor cytotoxicity in HepG2 cells - 0 hour (AID 1224882); further: on the % scale 0 is the no-effect control and ±100 the full control effect; nearly all actives have a fitted effect of over 35% in size
# COND: CellTox Green fluorescence; series mostly up to 76.8 µM
Calls of active or inactive are those of the source. The call rests on the fitted dose curve; in most records, active means well fitted activation curve with a large enough effect in the repeat runs; inconclusive means weak or mixed curves; inactive means flat fitted curve, though single readings scatter.
REPORTED_ENDPOINT: cytotoxicity

Please review the following examples before continuing.
>>> print(df.to_string())
                                   compound                          result
0  C[N+]1(CC2COC(c3ccccc3)(c3ccccc3)O2)CCCCC1 (configuration not stated)  -9.88% [at 15.8 µM] (inactive)
1                      CC(C)NNC(=O)c1ccncc1                        inactive
2  CCOC(=O)COc1cc(-n2ncc(C(F)(F)F)c(C)c2=O)c(F)cc1Cl                        inactive
3  Nc1ccn([C@@H]2O[C@H](CO)[C@@H](O)C2(F)F)c(=O)n1                        inactive
4                     CC(C)C[C@@H](N)C(=O)O   -9.4% [at 15.8 µM] (inactive)
5              CC1=NS(=O)(=O)c2cc(Cl)ccc2N1                        inactive

Now for another entry.
Record `CC(=O)Oc1cccc(C)c1` , field cytotoxicity: inactive
